# targetUnderTest: T1, hPRLR.mmh (soluble monomeric human PRLR) (human)
# T1 construct: soluble monomeric PRLR protein
# T1 chain: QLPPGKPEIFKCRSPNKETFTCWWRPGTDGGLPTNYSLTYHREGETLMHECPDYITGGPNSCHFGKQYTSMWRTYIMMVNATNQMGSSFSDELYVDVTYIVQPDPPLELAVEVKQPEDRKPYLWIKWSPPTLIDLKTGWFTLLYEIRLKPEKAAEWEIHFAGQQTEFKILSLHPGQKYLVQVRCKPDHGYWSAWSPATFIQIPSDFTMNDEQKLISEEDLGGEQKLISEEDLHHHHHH
# testSummary: SPR (Biacore), antibody capture, 37 C
# kon values compiled below
recordedEndpoint: kon (M⁻¹ s⁻¹)

1. H1H6792P (antibody, human IgG1, V domains shown, human IgG1 Fc (H1H)) VH: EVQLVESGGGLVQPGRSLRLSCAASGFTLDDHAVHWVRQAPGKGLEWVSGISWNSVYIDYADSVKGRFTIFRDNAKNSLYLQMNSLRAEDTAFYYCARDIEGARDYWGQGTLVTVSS VL: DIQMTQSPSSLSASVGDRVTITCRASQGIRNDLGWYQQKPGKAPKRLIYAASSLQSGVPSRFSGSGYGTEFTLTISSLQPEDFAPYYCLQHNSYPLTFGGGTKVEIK	435000
2. H1H6781P (antibody, human IgG1, V domains shown, human IgG1 Fc (H1H)) VH: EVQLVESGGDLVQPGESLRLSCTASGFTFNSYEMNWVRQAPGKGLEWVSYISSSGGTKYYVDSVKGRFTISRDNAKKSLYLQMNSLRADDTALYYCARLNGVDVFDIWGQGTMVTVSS VL: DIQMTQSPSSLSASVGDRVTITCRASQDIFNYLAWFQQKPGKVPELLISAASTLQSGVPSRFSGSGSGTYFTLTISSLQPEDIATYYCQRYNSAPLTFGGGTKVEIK	339000
